- experimental-system: Mitogen-activated protein kinase 9 (Homo sapiens)
- assay-details: Inhibition of human c-Jun N-terminal kinase-2 alpha-2 at 30 uM
reported-metric: inhibition (%)
Record the value in %, omitting the unit from your answer.

Observe how each entry below is paired with its result.
# molecule, unit-abbreviation, inhibition
data = [
    ("c1ccc(Sc2ncnc3[nH]cnc23)cc1", "%", 0),
    ("Cn1c(-c2ccc(S(C)(=O)=O)cc2)nc2c(Sc3ccccc3)ncnc21", "%", 8),
    ("Nc1ncnc2ncn(Cc3ccc(F)cc3)c12", "%", 7),
    ("c1ccc(C[n+]2c[nH]c3ncncc32)cc1", "%", 4),
    ("c1ccc(Cn2cnc3c(Sc4ccccc4)ncnc32)cc1", "%", 0),
    ("Fc1ccc(Oc2[nH]cnc3ncnc2-3)cc1", "%", 0),
    ("Fc1ccc(CSc2[nH]cnc3ncnc2-3)cc1", "%", 0),
    ("Cn1c(-c2ccc([S+](C)[O-])cc2)nc2c(Sc3ccccc3)ncnc21 (configuration not stated)", "%", 0),
]

Kindly note the recorded inhibition for Cn1c(-c2ccccc2)nc2c(Sc3ccccc3)ncnc21 , which is 0

Kindly note the recorded inhibition for Clc1ncnc2c1ncn2Cc1ccccc1 , which is 0

Kindly note the recorded inhibition for CSc1ccc(-c2nc3c(Sc4ccccc4)ncnc3n2C)cc1 , which is 1

Kindly note the recorded inhibition for c1ccc(Sc2[nH]cnc3nccc2-3)cc1 , which is 0

Attribution: ChEMBL document CHEMBL1141882
